Hello, the source for this data is PubChem BioAssay AID1159580, in case you need it.

experiment: chemical genetic growth profiling, strain panel (AID 1159580);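 note: tested at 20 µM; growth read once vehicle control cultures reached saturation at 30 °C; 1 = growth at the plate median or of vehicle wells; lower values mean less growth of the strain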; conditions: S. cerevisiae deletion strains, growth OD, locus YMR205C, strain PFK2 (second series), hits give low values
The campaign covered roughly 5,500 compounds. About 2,000 (36%) were called active. Inconclusive results (about 18%) are left out. This is one part of the list.
I'd appreciate it if you could supply normalized growth values for the items below.
Could you respond with only the numeric value?

Entry N#C/C(=N/Nc1ccc(Cl)cc1)C(=O)C1CC1 — recorded normalized growth = 0.774

Nc1ccc(N2CCN(c3ccc(C(F)(F)F)cn3)CC2)nc1 has a reported normalized growth of 0.952

So for CCOC(=O)C(O)(c1ccc(NC(=O)Nc2ccc(Cl)cc2)cc1)C(F)(F)F (stereo unspecified) , the logged normalized growth turned out to be 0.991

response.value for O=C(c1ccc(Cl)cc1)N1CCN(c2ccc(C(F)(F)F)cn2)CC1 (field: normalized growth) = 0.957

Input NNC(=O)COc1ccc(C2SCCS2)cc1 . Output normalized growth: 0.151

Value of measured normalized growth for the entry FC(F)(F)c1ccc(C2Sc3ccccc3N=C3c4ccccc4CC32)cc1 (stereo unspecified) : 0.995

* * *

assay: chemical genetic growth profiling, strain panel (AID 1159580); conditions: S. cerevisiae deletion strains, growth OD, locus YER111C, strain swi4, hits give low values
About 2,000 (36%) of roughly 5,500 compounds were called active. Not shown: some 18% with an inconclusive outcome. Some of the results follow.
Please provide measured normalized growth for the entries that follow.
Please give the numeric answer without any surrounding text.

normalized growth for O=c1c(-c2ccc3c(c2)OCO3)coc2cc(O)ccc12 is 1

normalized growth reading for CC1(C)S[C@@H]2[C@H](NC(=O)COc3ccccc3)C(=O)N2[C@H]1C(=O)O : 0.99

Entry COc1ccc2c(=O)c(-c3cc4c(cc3OC)OCO4)coc2c1 ; normalized growth = 1.01

Noted for O=c1cc(-c2ccc(O)cc2)oc2cc(O[C@@H]3O[C@H](CO)[C@@H](O)[C@H](O)[C@H]3O[C@@H]3OC[C@](O)(CO)[C@H]3O)cc(O)c12 : its normalized growth reads 1

For record COc1c2c(cc3occ(-c4ccc5c(c4)OCO5)c(=O)c13)OC(C)(C)C=C2 the listed normalized growth is 1.01

get_value(item= COc1cc(O)c(C)c(O)c1 , readout=normalized growth) returns 1.01

Documented normalized growth of O=C(O)c1cc2cc(Cl)ccc2[nH]1 : 0.98

Notebook: COc1cc2c(cc1-c1coc3c4c(c(OC)cc3c1=O)OC(C)(C)C=C4)OCO2 , normalized growth read as 0.994

Short answer for CCCCCN=C(N)N/N=C\c1c[nH]c2ccc(OC)cc12 : normalized growth was 1.02

Query CC1(C)C[C@@H]2C(=O)CC[C@H]3O[C@]3(C)CC[C@H]21 yields normalized growth of 1.01

Looking up CC(=O)N[C@@H](CC(=O)O)C(=O)O , I see its normalized growth listed as 1.01

normalized growth reading for COc1cc(O)c(C(C)=O)c(OC)c1 : 1

* * *

assay: chemical genetic growth profiling, strain panel (AID 1159580);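 note: tested at 20 µM; growth read once vehicle control cultures reached saturation at 30 °C; 1 = growth at the plate median or of vehicle wells; lower values mean less growth of the strain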; details: S. cerevisiae deletion strains, growth OD, locus YMR125W, strain sto1, hits give low values
Among all 5,500 compounds or so, about 2,000 (36%) were called active. Another 18% or so got no clear call; they are omitted. This is one part of the list.
Parameter: normalized growth

// sample CCCCC(=O)O[C@H]1CCC2C3CCc4cc(O)ccc4C3CC[C@@]21C (stereo not given in full) , its normalized growth was 0.999 (inactive)

So for CC(=O)O[C@H]1CC2CCC3C(CC[C@@]4(C)C3C[C@H]([N+]3(C)CCCCC3)[C@@H]4OC(C)=O)[C@@]2(C)C[C@@H]1[N+]1(C)CCCCC1 (stereo not given in full) , the logged normalized growth turned out to be 1.02 (inactive)

Measured normalized growth of CCOC(=O)C1=C(C)NC(C)=C(C(=O)OC)C1c1cccc([N+](=O)[O-])c1 (stereo not given) : 1.01 (inactive)

molecule CC(=O)Oc1ccc2c(c1)CCC1C2CC[C@@]2(C)C1CC[C@@H]2OC(C)=O (stereo not given in full) , normalized growth observed: 0.994 (inactive)

The molecule listed as Cn1c([N+](=O)[O-])cnc1COC(N)=O has a reported normalized growth of 0.991 (inactive)

get_value(item= O=C1c2ccc(O)c(O)c2C(=O)c2c(O)ccc(O)c21 , readout=normalized growth) returns 0.803 (active)

Entry CC(=O)OC1CCC2C3CCc4cc(O)ccc4C3CCC12C (stereo not given) , normalized growth reported as 0.927 (inactive)

Notebook: CC(C)=CCC1=C(O)c2ccccc2C(=O)C1=O , normalized growth read as 0.884 (active)

Record summary for Cc1cccc(N(C)C(=S)Oc2ccc3ccccc3c2)c1 : reported normalized growth = 0.988 (inactive)

For record CCCCCN=C(N)N/N=C\c1c[nH]c2ccc(OC)cc12 the listed normalized growth is 0.979 (inactive)

* * *

Assignment: determine reported normalized growth for the given compounds.
test: chemical genetic growth profiling, strain panel (AID 1159580);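 note: tested at 20 µM; growth read once vehicle control cultures reached saturation at 30 °C; 1 = growth at the plate median or of vehicle wells; lower values mean less growth of the strain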; conditions: S. cerevisiae deletion strains, growth OD, locus YLR357W, strain rsc2, hits give low values
Among all 5,500 compounds or so, about 2,000 (36%) were called active. About 18% were inconclusive and are not listed. The list shows a part of the results.
// keep it numeric: no unit symbol after the value

Quick note, normalized growth for CC(C)=CCOc1c2occc2cc2ccc(=O)oc12 landed at 0.871

The compound listed as O=c1n(CCCN2CCN(c3cccc(Cl)c3)CC2)nc2ccccn12 shows normalized growth equal to 0.932

get_value(item= CC(=O)c1ccc2c(c1)N(CCCN(C)C)c1ccccc1S2 , readout=normalized growth) returns 1.01

Short answer for CCCCC(=O)N(Cc1ccc(-c2ccccc2-c2nn[nH]n2)cc1)[C@H](C(=O)O)C(C)C : normalized growth was 0.976

Memo: Cn1nnnc1SCC1=C(C(=O)O)N2C(=O)C(NC(=O)C(OC=O)c3ccccc3)C2SC1 (stereo not given) , reported normalized growth: 0.94

Short answer for N#Cc1ccc2c(c1)N(CCCN1CCC(O)CC1)c1ccccc1S2 : normalized growth was 0.969

Measured normalized growth, CCOc1nc2cccc(C(=O)OC(C)OC(=O)OC3CCCCC3)c2n1Cc1ccc(-c2ccccc2-c2nn[nH]n2)cc1 (stereo not given) : 1.07

For reference, reported normalized growth for CN1CCN(CCCN2c3ccccc3Sc3ccc(Cl)cc32)CC1 stands at 0.914

Field normalized growth (entry CC(C)=CCC/C(C)=C/COc1ccc2ccc(=O)oc2c1 ) reads 1.01

Record CCCc1nc(C(C)(C)O)c(C(=O)OCc2oc(=O)oc2C)n1Cc1ccc(-c2ccccc2-c2nn[nH]n2)cc1 , field normalized growth: 0.985

* * *

experiment: chemical genetic growth profiling, strain panel (AID 1159580);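 note: tested at 20 µM; growth read once vehicle control cultures reached saturation at 30 °C; 1 = growth at the plate median or of vehicle wells; lower values mean less growth of the strain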; conditions: S. cerevisiae deletion strains, growth OD, locus YPL031C, strain PHO85, hits give low values
Hit rate of the full screen: of about 5,500 compounds, about 2,000 (36%) were called active. About 18% were inconclusive and are not listed. This is one part of the list.
For each of the compounds below, state its normalized growth.
Reply with just the number.

What the record says about CSc1nc(Sc2n[nH]c(-c3ccccc3)n2)cc(Sc2n[nH]c(-c3ccccc3)n2)n1 : normalized growth is 1.02

Record Cc1c(C(=O)NCCNc2ccc(C(F)(F)F)cc2[N+](=O)[O-])cnn1-c1ccc(F)cc1 . Reported normalized growth: 0.96

Value of normalized growth reported for the compound Nc1ccc(N2CCN(c3ccc(C(F)(F)F)cn3)CC2)nc1 is 0.876

Per the record, C(=NC(N=Cc1ccccc1)c1ccccc1)c1ccccc1 (stereo not drawn) has normalized growth of 0.962

The reported normalized growth of the compound CC(=O)Oc1ccc2c(=O)c(Oc3ccc(Cl)cc3)c(C)oc2c1 was 0.935

Field normalized growth (entry Oc1ccc(-n2nnnc2SCc2ccc(OC(F)(F)F)cc2)cc1 ) reads 0.725

normalized growth reported for this compound O=C(SCc1c(Cl)cccc1Cl)c1ccc([N+](=O)[O-])o1 : 0.396

The reported normalized growth of the compound CCCCc1ccc(N=CNO)c(C)c1 was 0.444

Data point: O=C(OCc1ccc(Oc2ccc(Cl)cc2Cl)c([N+](=O)[O-])c1)c1ccc([N+](=O)[O-])o1 ; normalized growth = 0.974

Briefly, normalized growth measured for N/C(=N/OC(=O)c1ccccc1Cl)c1ccc2nonc2c1 : 0.966

compound O=C(Nc1ccc(OC(F)(F)F)cc1)Nc1cncc(C(F)(F)F)c1 , normalized growth observed: 0.921

// normalized growth lookup, compound = Cc1oc(-c2ccc(Cl)cc2)cc1C(=O)N1CCN(c2ccc(C(F)(F)F)cn2)CC1 , result: 0.936

Given item NNC(=O)COc1ccc(C2SCCS2)cc1 , the value recorded as its normalized growth is 0.201

Record O=C(Oc1ccc(C2SCCS2)cc1)c1cccs1 , field normalized growth: 0.697

Data point: N#Cc1c(N)sc2c1CCc1ccccc1-2 ; normalized growth = 0.464

The value of normalized growth measured for the compound Cc1nn(Cc2cccc(C(=O)O/N=C(/N)c3ccc(Cl)cc3)c2)c(C)c1Br turned out to be 0.929

Looking up O=C(NCc1ccc(F)c(Cl)c1)Nc1csc([N+](=O)[O-])c1 , I see its normalized growth listed as 0.983

Recorded result, O=C(O)c1cccc2cccc(C(=O)O)c12 , normalized growth: 0.102

Quick note, normalized growth for CCCCCc1ccc(S(=O)(=O)Nc2ncc(C)cc2Br)cc1 landed at 0.882

// normalized growth lookup, compound = O=C(N/N=C\c1cc(Cl)cc(Cl)c1O)c1ccccc1Oc1ccccc1 , result: 0.938

Input Fc1ccc(Nc2nc(-c3ccc(F)c(F)c3)cs2)c(F)c1 . Output normalized growth: 0.114

// Cc1nc(C(F)(F)F)ccc1-c1nnc(SC(=O)c2ccc(Cl)cc2)o1 : normalized growth value = 0.81

Entry COC(=O)c1ccc(Oc2c(C(F)(F)F)oc3cc(O)ccc3c2=O)cc1 , normalized growth reported as 0.94
